Tested on: ACHN
EXPERIMENTAL DETAILS: minimum viability across doses, drug alone, relative to DMSO (fraction); higher = less growth inhibition
STUDY CONDITIONS: treatment: drug alone; 5 days
Please go through the items and note down their minimum viability across doses.
Please give only the number in your answer, with no unit.

Dear colleague, I am looking for the recorded minimum viability across doses of the following compound: CC(C)(C)c1nc(-c2cccc(NS(=O)(=O)c3c(F)cccc3F)c2F)c(-c2ccnc(N)n2)s1
0.115

Tell me the measured minimum viability across doses of FC(F)c1nc2ccccc2n1-c1nc(N2CCOCC2)nc(N2CCOCC2)n1 [ZSTK474] , please.
0.0879

Query (compound): CS(=O)(=O)O.Cc1ccc(NC(=O)c2ccc(CN3CCN(C)CC3)cc2)cc1Nc1nccc(-c2cccnc2)n1 [Imatinib Mesylate] ; field requested: minimum viability across doses
0.855

// query minimum viability across doses value for entry CCS(=O)(=O)c1cccc(-c2cc(C(=O)NC3CCN(C)CC3)c(C)c3[nH]c4ncc(C)cc4c23)c1 [TAK-901]
0.0394

Field request: minimum viability across doses | item: S=C(NCc1ccc2c(c1)OCO2)N1CCN(c2ncnc3c2oc2ccccc23)CC1 [Amuvatinib (MP-470)_R2]
0.151

Consider the compound FC(F)(F)c1ccc(/C=C/c2nc(COc3ccc(CCCCn4ccnn4)cc3)co2)cc1 [Mubritinib (TAK 165)] and give its measured minimum viability across doses.
0.125

Reported minimum viability across doses, compound O=C(NOCC1CC1)c1ccc(F)c(F)c1Nc1ccc(I)cc1Cl : ____
0.263

Would you kindly share the measured minimum viability across doses for N#CC[C@H](C1CCCC1)n1cc(-c2ncnc3[nH]ccc23)cn1 ?
0.779

* * *

Tested on: UO-31
EXPERIMENTAL DETAILS: minimum viability across doses, drug alone, relative to DMSO (fraction); higher = less growth inhibition
STUDY CONDITIONS: treatment: drug alone; 5 days
QUANTITY KIND: minimum viability across doses

Request the reported minimum viability across doses associated with Cl.N=C(N)NC(=N)NCCc1ccccc1 [Phenformin hydrochloride]
0.0295

Would you kindly share the measured minimum viability across doses for CC(C)(C)Cn1c(N)nc2ccc(-c3[nH]c(C(C)(C)C)nc3-c3ccc(F)cc3)nc21.CS(=O)(=O)O.CS(=O)(=O)O ?
0.733

Field request: minimum viability across doses | item: CCn1c(N)c(C(=O)NC)c(=O)c2ccc(C#C[C@@](C)(O)COC)nc21
0.992

What does the data say about its minimum viability across doses? Entry: COc1cc(Nc2ncc(F)c(Nc3ccc4c(n3)N(COP(=O)(O)O)C(=O)C(C)(C)O4)n2)cc(OC)c1OC
0.00902

Name the recorded minimum viability across doses for COc1cc2ncnc(Nc3ccc(F)c(Cl)c3)c2cc1OCCCN1CCOCC1 .
0.872

Recorded minimum viability across doses of Cc1cc(C(=O)NOCCO)c(Nc2ccc(I)cc2F)n(C)c1=O , please.
0.527

Need minimum viability across doses, item O=C(NCc1ccccc1)c1csc(Nc2ccncn2)n1
0.279

* * *

Test system: CAKI-1
EXPERIMENTAL DETAILS: GI50 of drug in presence of dasatinib; higher = less potent
STUDY CONDITIONS: treatment: drug + dasatinib (fixed dose, not stated); 5 days
Hi there, I'd appreciate the recorded GI50 of drug for every entry that follows.

Give its GI50 of drug value. Item: CN1CCN(c2nc(C3=C(c4c[nH]c5ccccc45)C(=O)NC3=O)c3ccccc3n2)CC1 [Sotrastaurin (AEB071)] + Cc1nc(Nc2ncc(C(=O)Nc3c(C)cccc3Cl)s2)cc(N2CCN(CCO)CC2)n1 [dasatinib]
> 10 µM

What does the data say about its GI50 of drug? Entry: Cl.N=C(N)NC(=N)NCCc1ccccc1 [Phenformin hydrochloride] + Cc1nc(Nc2ncc(C(=O)Nc3c(C)cccc3Cl)s2)cc(N2CCN(CCO)CC2)n1 [dasatinib]
> 10 µM

Item under review: CC[C@H](CO)Nc1nc(NCc2ccccc2)c2ncn(C(C)C)c2n1 [Roscovitine (Seliciclib, CYC202)] + Cc1nc(Nc2ncc(C(=O)Nc3c(C)cccc3Cl)s2)cc(N2CCN(CCO)CC2)n1 [dasatinib] . Reported GI50 of drug?
> 10 µM
